Assay: binders from COS7 lysate, DM2A8 probe, primary screen, torsin A project, cell lysate, small-molecule microarray, fluorescence 635/667 (AID 1065)
Details: higher = more signal, COS7 lysate expressing mutant human TOR1A
Measure: composite z-score
Keep it simple and answer with nothing but the number.

Below, 10 molecules whose answers are already recorded.
- COc1ccc([Si](C)(C)[C@H]2[C@H](CC(=O)N3CCC[C@H]3CO)O[C@@]3(C(=O)N(c4ccccc4)c4ccccc43)[C@@H]2C)cc1: 0.509
- CCCCC(=O)N(Cc1ccccc1F)[C@@H]1CC(C(=O)NCCO)=C[C@H](Oc2c(I)cc(CO)cc2OC)[C@H]1O: 0.686
- CC1CC/C=C\[C@H]2OC34C=CCN(Cn5nnc6ccccc65)C(=O)[C@H]3N(CCCO)C(=O)[C@@H]4C2C(=O)O1 (stereo not given in full): -1.14
- O=C(CS)NCCCCCNC(=O)[C@H]1C[C@H]2C(=O)N[C@@H](Cc3ccccc3)C(=O)N2[C@H]1c1cccc(OCCO)c1: 1.31
- COCCOC(=O)N1C(=O)[C@@]2(c3cc(C#Cc4ccc(OC)cc4)ccc31)[C@H](C(N)=O)[C@H]1C(=O)O[C@H](c3ccccc3)[C@H](c3ccccc3)N1[C@@H]2c1ccc(O)cc1: -0.343
- O=C1OCC=C[C@H]2OC34C=CCN(CCN5CCOCC5)C(=O)[C@H]3N(CCCCCCO)C(=O)[C@@H]4[C@@H]12 (stereo not given in full): 0.108
- Cc1ccc([C@H]2C(C(=O)O)=C[C@@H](C(C)C)N2S(=O)(=O)c2ccc(C)cc2)cc1: -0.304
- COc1ccc(C(O)C2C=CC3C(=O)N(c4ccccc4)C(=O)C3N2Nc2ccccc2)c2ccccc12 (stereo not given): -0.141
- NC(=O)[C@@]1(CCS(=O)(=O)c2ccccc2)N=C(c2ccc(OCCCO)cc2)O[C@H]1c1ccccc1: 1.54
- C=CCN1C(=O)[C@@]2(O[C@@H](CCO)[C@H]([Si](C)(C)c3ccc(OC)cc3)[C@H]2C)c2cc(NC(C)=O)ccc21: 0.299

Now consider a different molecule.
Param item = CCCC[C@H]1C[C@@H]1[C@@H]1N(P(=O)(c2ccccc2)c2ccccc2)[C@](CO)(c2ccccc2)CC12CC2 ; retrieve measured composite z-score. -0.363

----------
Target: Albumin (Bos taurus)
Assay: compounds binding labelled BSA control protein – biochemical, small-molecule microarray, Alexa647 label, 635/667 nm fluorescence, artefact control for SMM control protein annotation, profiling panel (AID 1118);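 further: score merges 667 nm emission intensity and signal-to-noise per printed compound spot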
Conditions: BSA-A647 binding, fluorescence 635 nm, higher = more signal
In this section, each of the compounds is paired with its reported composite z-score.
Number only, please.

Example results:
* C=CCC(OC(C)=O)[C@@H]1[C@@H](N(Cc2cc3ccccc3o2)C(=O)c2cccc3ccccc23)c2cc(OCCCO)ccc2N1C(=O)Cc1ccc(OC)cc1 (stereo partly drawn) | -0.131
* CCN(CC)c1ccc(N2CC=CC34O[C@@H]5C=CCOC(=O)[C@@H]5[C@H]3C(=O)N(CCCCCO)[C@@H]4C2=O)cc1 (stereo partly drawn) | 0.347

Can you share its composite z-score? I mean this compound: O=C1O[C@@H](c2ccccc2)[C@@H](c2ccccc2)N2[C@@H](c3ccc(O)cc3)[C@]3(C(=O)Nc4ccc(C#CCCO)cc43)[C@@H](C(=O)O)[C@H]12 0.323
